# ASSAY PROCEDURE: Fluorescence microscopy of ThT-stained fibrils (µm-sized aggregates)
# Format: physicochemical
# Experimental: Transmission electron microscopy (TEM) measurements, Thioflavin (ThT), zeta-potential measurements for fibril characterization were prepared and conducted according to prior art procedures. […] Fibrils were defined as distinct, if no visible structures could be identified in fluorescence and brightfield microscopy. Fluorescence microscopy: 1 µL Fibrils (1 mg mL^-1) were stained with 9 µL, 50 µM ThT. 10 µL of the stained fibrils (0.1 mg mL^-1) were placed on a microscopy glass. […]
Where a SMILES comes first, the peptide text is derived from it. The star is where a group is joined. X1 = CC/C=C\C/C=C\C/C=C\C/C=C\C/C=C\CCCC(=O)*; Fmoc = O=C(OCC1c2ccccc2-c2ccccc21)*; Lauroyl = CCCCCCCCCCCC(=O)*
VALUE TYPE: formation of µm-sized aggregates in aqueous medium / PBS (in words)

CC/C=C\C/C=C\C/C=C\C/C=C\C/C=C\CCCC(=O)N[C@H](C(=O)N[C@H](C(=O)N[C@H](C(=O)N[C@@H](C)C(=O)N[C@@H](C)C(=O)N[C@@H](C)C(=O)N[C@@H](CCCCN)C(=O)N[C@@H](CCCCN)C(=O)N[C@@H](CCCCN)C(N)=O)C(C)C)C(C)C)C(C)C [Pat10] (X1-VVVAAAKKK-NH2) ... form µm-sized aggregates
CCCCCCCCCCCC(=O)N[C@H](C(=O)N[C@H](C(=O)N[C@H](C(=O)N[C@@H](C)C(=O)N[C@@H](C)C(=O)N[C@@H](C)C(=O)N[C@@H](CCCCN)C(=O)N[C@@H](CCCCN)C(=O)N[C@@H](CCCCN)C(N)=O)C(C)C)C(C)C)C(C)C [Pat7] (Lauroyl-VVVAAAKKK-NH2) ... form µm-sized aggregates
CC(C)[C@H](NC(=O)OCC1c2ccccc2-c2ccccc21)C(=O)N[C@H](C(=O)N[C@H](C(=O)N[C@@H](C)C(=O)N[C@@H](C)C(=O)N[C@@H](C)C(=O)N[C@@H](CCCCN)C(=O)N[C@@H](CCCCN)C(=O)N[C@@H](CCCCN)C(N)=O)C(C)C)C(C)C [Pat12] (Fmoc-VVVAAAKKK-NH2) ... form µm-sized aggregates

---

# ASSAY PROCEDURE: TEM of peptide assemblies (fibril formation / assembly)
# Type: physicochemical
# CONDITIONS USED: corresponding peptide without hydrophobic moiety
Where a SMILES comes first, the peptide text is derived from it. The star is where a group is joined. Palmitoyl = CCCCCCCCCCCCCCCC(=O)*
VALUE TYPE: Assembly without hydrophob residue

CCCCCCCCCCCCCCCC(=O)N[C@@H](CCCCN)C(=O)NCC(=O)N[C@H](C(=O)N1CCC[C@H]1C(=O)NCC(=O)N[C@H](C(=O)NCC(=O)N[C@@H](CCCCN)C(N)=O)C(C)C)C(C)C [Pat25] (Palmitoyl-KGVPGVGK-NH2) ... Yes
CCCCCCCCCCCCCCCC(=O)N[C@@H](CC(C)C)C(=O)N[C@@H](CC(C)C)C(=O)N[C@@H](CC(C)C)C(=O)N[C@@H](CCCCN)C(=O)N[C@@H](CCCCN)C(N)=O [Pat23, C16-LLLKK-NH2] (Palmitoyl-LLLKK-NH2) ... No
